The reported measurements were obtained from patent US11787785B2.

target: WIZ protein (HiBit-WIZ fusion protein) (Homo sapiens, UniProt O95785+Q96SW2); construct: expressed in transfected cells; test: Quantification of WIZ protein levels in HiBit tag fusion protein assay (WIZ HiBit assay in 293T cells); type: cell-based; details: HEK-293T, DMSO-normalized, curve-fitted percentage of WIZ-HiBit remaining at 25 uM; 293T cells; read-out: WIZ Amax
Sequence (O95785 whole entry, the tested form may be a part): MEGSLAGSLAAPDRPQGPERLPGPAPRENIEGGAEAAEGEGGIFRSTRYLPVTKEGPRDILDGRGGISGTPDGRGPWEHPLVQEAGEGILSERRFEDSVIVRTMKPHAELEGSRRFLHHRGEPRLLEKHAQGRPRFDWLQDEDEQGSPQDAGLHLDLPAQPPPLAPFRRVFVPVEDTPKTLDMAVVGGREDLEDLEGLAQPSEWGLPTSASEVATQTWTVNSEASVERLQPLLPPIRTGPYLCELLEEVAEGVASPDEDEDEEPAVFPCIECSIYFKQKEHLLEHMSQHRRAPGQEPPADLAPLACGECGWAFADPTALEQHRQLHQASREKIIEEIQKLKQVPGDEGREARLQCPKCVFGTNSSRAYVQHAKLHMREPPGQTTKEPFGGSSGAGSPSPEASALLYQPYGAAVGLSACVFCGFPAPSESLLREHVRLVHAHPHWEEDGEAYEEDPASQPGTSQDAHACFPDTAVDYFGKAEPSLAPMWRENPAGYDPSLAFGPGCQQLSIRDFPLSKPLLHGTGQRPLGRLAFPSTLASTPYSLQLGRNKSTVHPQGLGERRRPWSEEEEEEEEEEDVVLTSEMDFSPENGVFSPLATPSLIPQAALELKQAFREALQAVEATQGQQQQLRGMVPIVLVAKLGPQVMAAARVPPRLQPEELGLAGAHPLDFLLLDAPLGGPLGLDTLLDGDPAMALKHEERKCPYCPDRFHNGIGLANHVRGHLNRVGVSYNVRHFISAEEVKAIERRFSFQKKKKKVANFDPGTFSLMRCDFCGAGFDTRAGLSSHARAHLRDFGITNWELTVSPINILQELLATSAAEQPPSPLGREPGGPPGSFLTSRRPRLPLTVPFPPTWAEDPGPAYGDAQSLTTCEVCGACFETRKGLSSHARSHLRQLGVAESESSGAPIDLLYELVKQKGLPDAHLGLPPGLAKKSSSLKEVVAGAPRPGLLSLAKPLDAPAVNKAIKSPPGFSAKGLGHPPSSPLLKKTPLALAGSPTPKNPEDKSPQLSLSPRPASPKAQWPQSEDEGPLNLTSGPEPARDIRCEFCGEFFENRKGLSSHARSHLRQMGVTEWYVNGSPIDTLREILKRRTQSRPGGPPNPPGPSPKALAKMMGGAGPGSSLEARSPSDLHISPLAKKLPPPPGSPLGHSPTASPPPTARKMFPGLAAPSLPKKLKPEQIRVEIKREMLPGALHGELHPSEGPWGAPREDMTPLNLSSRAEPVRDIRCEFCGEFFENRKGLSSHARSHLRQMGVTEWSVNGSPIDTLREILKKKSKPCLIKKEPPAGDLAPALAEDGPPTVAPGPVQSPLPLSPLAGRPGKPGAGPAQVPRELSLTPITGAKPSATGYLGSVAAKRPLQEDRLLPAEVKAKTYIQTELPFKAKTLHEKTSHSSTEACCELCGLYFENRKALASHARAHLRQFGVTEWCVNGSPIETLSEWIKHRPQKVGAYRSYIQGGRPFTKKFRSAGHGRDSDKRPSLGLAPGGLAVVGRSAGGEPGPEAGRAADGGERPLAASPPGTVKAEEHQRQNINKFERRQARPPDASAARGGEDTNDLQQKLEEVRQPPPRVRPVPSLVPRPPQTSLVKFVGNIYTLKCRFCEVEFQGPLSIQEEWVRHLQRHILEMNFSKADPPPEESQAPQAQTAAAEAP
Sequence (Q96SW2 whole entry, the tested form may be a part): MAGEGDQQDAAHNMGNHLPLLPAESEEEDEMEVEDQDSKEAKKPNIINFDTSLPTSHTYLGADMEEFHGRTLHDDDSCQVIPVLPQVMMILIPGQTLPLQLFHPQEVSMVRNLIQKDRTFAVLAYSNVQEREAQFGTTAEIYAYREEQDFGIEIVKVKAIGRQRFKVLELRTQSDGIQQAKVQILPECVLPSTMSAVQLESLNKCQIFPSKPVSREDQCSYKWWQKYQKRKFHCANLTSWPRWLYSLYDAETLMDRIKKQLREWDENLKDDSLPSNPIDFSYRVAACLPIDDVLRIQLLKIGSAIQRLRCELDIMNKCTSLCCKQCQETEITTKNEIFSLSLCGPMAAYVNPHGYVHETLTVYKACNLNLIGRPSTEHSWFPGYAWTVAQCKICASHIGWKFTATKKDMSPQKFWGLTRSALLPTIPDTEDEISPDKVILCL
Sequence (Q16531 whole entry partner, the tested form may be a part): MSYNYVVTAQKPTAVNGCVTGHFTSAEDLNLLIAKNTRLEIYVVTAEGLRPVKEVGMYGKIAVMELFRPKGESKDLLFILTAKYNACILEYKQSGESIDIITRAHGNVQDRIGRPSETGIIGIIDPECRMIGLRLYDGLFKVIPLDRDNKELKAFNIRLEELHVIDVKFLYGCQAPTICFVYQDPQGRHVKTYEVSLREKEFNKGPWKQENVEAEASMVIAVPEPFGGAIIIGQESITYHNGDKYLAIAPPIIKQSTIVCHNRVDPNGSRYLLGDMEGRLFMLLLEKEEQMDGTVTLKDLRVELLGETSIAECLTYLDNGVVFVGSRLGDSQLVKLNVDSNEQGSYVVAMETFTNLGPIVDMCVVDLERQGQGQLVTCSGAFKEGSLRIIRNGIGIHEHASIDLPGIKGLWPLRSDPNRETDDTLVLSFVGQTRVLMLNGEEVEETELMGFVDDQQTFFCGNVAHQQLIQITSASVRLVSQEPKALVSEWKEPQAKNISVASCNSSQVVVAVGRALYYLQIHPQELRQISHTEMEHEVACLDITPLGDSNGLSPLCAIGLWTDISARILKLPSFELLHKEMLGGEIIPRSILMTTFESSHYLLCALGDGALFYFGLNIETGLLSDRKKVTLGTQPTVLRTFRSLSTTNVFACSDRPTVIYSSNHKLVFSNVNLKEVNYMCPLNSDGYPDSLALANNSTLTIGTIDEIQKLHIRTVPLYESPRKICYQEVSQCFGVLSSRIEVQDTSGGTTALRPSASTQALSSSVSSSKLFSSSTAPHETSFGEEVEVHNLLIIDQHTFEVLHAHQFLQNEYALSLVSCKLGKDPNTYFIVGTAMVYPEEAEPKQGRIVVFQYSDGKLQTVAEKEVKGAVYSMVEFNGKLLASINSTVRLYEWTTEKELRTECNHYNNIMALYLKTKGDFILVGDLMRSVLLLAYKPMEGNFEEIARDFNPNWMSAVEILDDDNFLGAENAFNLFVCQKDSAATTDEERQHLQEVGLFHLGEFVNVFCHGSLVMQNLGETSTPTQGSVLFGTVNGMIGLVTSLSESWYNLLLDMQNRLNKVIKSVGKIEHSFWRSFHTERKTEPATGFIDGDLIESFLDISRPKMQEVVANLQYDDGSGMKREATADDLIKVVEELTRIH
Parameter: remaining activity at 25 µM. Scope: all listed entries.
parameterMeasured: remaining activity at 25 µM (%)

[[record]]
compound = "C[C@H]1CN(Cc2ccn3ncc(N4CCC(=O)NC4=O)c3c2)CCN1C(=O)C1CC1"
targetentity = "WIZ protein (HiBit-WIZ fusion protein) (Homo sapiens, UniProt O95785+Q96SW2)"
observed = 68

[[record]]
compound = "O=C1CCN(c2cnn3ccc(CC4CN(CC5CCCCC5)C4)cc23)C(=O)N1"
targetentity = "WIZ protein (HiBit-WIZ fusion protein) (Homo sapiens, UniProt O95785+Q96SW2)"
observed = 74

[[record]]
compound = "CC(C)C(C)N1CCN(Cc2ccn3ncc(N4CCC(=O)NC4=O)c3c2)CC1 (centres unmarked)"
targetentity = "WIZ protein (HiBit-WIZ fusion protein) (Homo sapiens, UniProt O95785+Q96SW2)"
observed = 20

[[record]]
compound = "O=C1CCN(c2cnn3ccc(CN4CCN(CCC5CCOCC5)CC4)cc23)C(=O)N1"
targetentity = "WIZ protein (HiBit-WIZ fusion protein) (Homo sapiens, UniProt O95785+Q96SW2)"
observed = 20

[[record]]
compound = "CC(C)C(=O)N1CCN(Cc2ccn3ncc(N4CCC(=O)NC4=O)c3c2)C[C@@H]1C"
targetentity = "WIZ protein (HiBit-WIZ fusion protein) (Homo sapiens, UniProt O95785+Q96SW2)"
observed = 70

[[record]]
compound = "O=C1CCN(c2cnn3ccc(CN4C[C@@H]5C[C@H]4CN5CC4CCCCC4)cc23)C(=O)N1"
targetentity = "WIZ protein (HiBit-WIZ fusion protein) (Homo sapiens, UniProt O95785+Q96SW2)"
observed = 95

[[record]]
compound = "CC(C)CN1CC[C@@H](Cc2ccn3ncc(-n4cc(F)c(=O)[nH]c4=O)c3c2)C[C@@H]1C"
targetentity = "WIZ protein (HiBit-WIZ fusion protein) (Homo sapiens, UniProt O95785+Q96SW2)"
observed = 14

[[record]]
compound = "Cc1cn(-c2cnn3ccc(C[C@@H]4CCN(CC5CC5)[C@@H](C)C4)cc23)c(=O)[nH]c1=O"
targetentity = "WIZ protein (HiBit-WIZ fusion protein) (Homo sapiens, UniProt O95785+Q96SW2)"
observed = 14

[[record]]
compound = "CCC(C)CN1CCC(Cc2ccn3ncc(N4CCC(=O)NC4=O)c3c2)CC1 (centres unmarked)"
targetentity = "WIZ protein (HiBit-WIZ fusion protein) (Homo sapiens, UniProt O95785+Q96SW2)"
observed = 16

[[record]]
compound = "O=C1CCN(c2cnn3ccc(CC4CCN(Cc5ccc(F)c(F)c5)CC4)cc23)C(=O)N1"
targetentity = "WIZ protein (HiBit-WIZ fusion protein) (Homo sapiens, UniProt O95785+Q96SW2)"
observed = 30

[[record]]
compound = "O=C1CCN(c2cnn3ccc(CC4CCN(Cc5cc(F)cc(C(F)(F)F)c5)CC4)cc23)C(=O)N1"
targetentity = "WIZ protein (HiBit-WIZ fusion protein) (Homo sapiens, UniProt O95785+Q96SW2)"
observed = 34

[[record]]
compound = "O=C1CCN(c2cnn3ccc(CC4CCCNCC4)cc23)C(=O)N1 (centres unmarked)"
targetentity = "WIZ protein (HiBit-WIZ fusion protein) (Homo sapiens, UniProt O95785+Q96SW2)"
observed = 51

[[record]]
compound = "C[C@@H]1CC(CN2CCN(Cc3ccn4ncc(N5CCC(=O)NC5=O)c4c3)CC2)C[C@H](C)O1 (some centres unmarked)"
targetentity = "WIZ protein (HiBit-WIZ fusion protein) (Homo sapiens, UniProt O95785+Q96SW2)"
observed = 14

[[record]]
compound = "O=C1CCN(c2cnn3ccc(CN4C[C@H]5CC[C@@H](C4)N5CC4CCCCC4)cc23)C(=O)N1"
targetentity = "WIZ protein (HiBit-WIZ fusion protein) (Homo sapiens, UniProt O95785+Q96SW2)"
observed = 58

[[record]]
compound = "CC(C)CS(=O)(=O)N1CCC(Cc2ccn3ncc(N4CCC(=O)NC4=O)c3c2)CC1"
targetentity = "WIZ protein (HiBit-WIZ fusion protein) (Homo sapiens, UniProt O95785+Q96SW2)"
observed = 21

[[record]]
compound = "O=C1CCN(c2cnn3ccc(CN4CCN(Cc5cscn5)CC4)cc23)C(=O)N1"
targetentity = "WIZ protein (HiBit-WIZ fusion protein) (Homo sapiens, UniProt O95785+Q96SW2)"
observed = 60

[[record]]
compound = "O=C1CCN(c2cnn3ccc(CC4CCN(CC5CCOC5)CC4)cc23)C(=O)N1 (centres unmarked)"
targetentity = "WIZ protein (HiBit-WIZ fusion protein) (Homo sapiens, UniProt O95785+Q96SW2)"
observed = 16

[[record]]
compound = "O=C1CCN(c2cnn3ccc(CC4CCN(CC5COC5)CC4)cc23)C(=O)N1"
targetentity = "WIZ protein (HiBit-WIZ fusion protein) (Homo sapiens, UniProt O95785+Q96SW2)"
observed = 18

[[record]]
compound = "O=C1CCN(c2cnn3ccc(CC4CCN(Cc5ccccc5Cl)CC4)cc23)C(=O)N1"
targetentity = "WIZ protein (HiBit-WIZ fusion protein) (Homo sapiens, UniProt O95785+Q96SW2)"
observed = 42

[[record]]
compound = "CC(C)CN1CCCN(Cc2ccn3ncc(N4CCC(=O)NC4=O)c3c2)CC1"
targetentity = "WIZ protein (HiBit-WIZ fusion protein) (Homo sapiens, UniProt O95785+Q96SW2)"
observed = 59

[[record]]
compound = "C[C@H]1C[C@H](Cc2ccn3ncc(N4CCC(=O)NC4=O)c3c2)CCN1S(=O)(=O)N1CCCC1"
targetentity = "WIZ protein (HiBit-WIZ fusion protein) (Homo sapiens, UniProt O95785+Q96SW2)"
observed = 17

[[record]]
compound = "C[C@H]1CN(Cc2ccn3ncc(N4CCC(=O)NC4=O)c3c2)CCN1C1CCC(F)(F)CC1"
targetentity = "WIZ protein (HiBit-WIZ fusion protein) (Homo sapiens, UniProt O95785+Q96SW2)"
observed = 15

[[record]]
compound = "Cc1cn(-c2cnn3ccc(CN4CCN(CC(C)C)[C@@H](C)C4)cc23)c(=O)[nH]c1=O"
targetentity = "WIZ protein (HiBit-WIZ fusion protein) (Homo sapiens, UniProt O95785+Q96SW2)"
observed = 11

[[record]]
compound = "Cc1ccc(CN2CCC(Cc3ccn4ncc(N5CCC(=O)NC5=O)c4c3)CC2)cn1"
targetentity = "WIZ protein (HiBit-WIZ fusion protein) (Homo sapiens, UniProt O95785+Q96SW2)"
observed = 31

[[record]]
compound = "C[C@H]1CN(Cc2ccn3ncc(N4CCC(=O)NC4=O)c3c2)CCN1CC1CCC(C)(C)CC1"
targetentity = "WIZ protein (HiBit-WIZ fusion protein) (Homo sapiens, UniProt O95785+Q96SW2)"
observed = 10

[[record]]
compound = "CC(C)(C)CN1CCC(Cc2ccn3ncc(N4CCC(=O)NC4=O)c3c2)CC1"
targetentity = "WIZ protein (HiBit-WIZ fusion protein) (Homo sapiens, UniProt O95785+Q96SW2)"
observed = 21

[[record]]
compound = "CN1CCCC(Cc2ccn3ncc(N4CCC(=O)NC4=O)c3c2)CC1 (centres unmarked)"
targetentity = "WIZ protein (HiBit-WIZ fusion protein) (Homo sapiens, UniProt O95785+Q96SW2)"
observed = 37

[[record]]
compound = "O=C1CCN(c2cnn3ccc(CC4C[C@H]5CC[C@@H](C4)N5CC4CCCCC4)cc23)C(=O)N1 (some centres unmarked)"
targetentity = "WIZ protein (HiBit-WIZ fusion protein) (Homo sapiens, UniProt O95785+Q96SW2)"
observed = 28

[[record]]
compound = "O=C1CCN(c2cnn3ccc(CC4(F)CCN(CC5CCCCC5)CC4)cc23)C(=O)N1"
targetentity = "WIZ protein (HiBit-WIZ fusion protein) (Homo sapiens, UniProt O95785+Q96SW2)"
observed = 32

[[record]]
compound = "CC[C@H]1CN(Cc2ccn3ncc(N4CCC(=O)NC4=O)c3c2)CCN1CC1CCOCC1"
targetentity = "WIZ protein (HiBit-WIZ fusion protein) (Homo sapiens, UniProt O95785+Q96SW2)"
observed = 40

[[record]]
compound = "Cc1ccccc1CN1CCC(Cc2ccn3ncc(N4CCC(=O)NC4=O)c3c2)CC1"
targetentity = "WIZ protein (HiBit-WIZ fusion protein) (Homo sapiens, UniProt O95785+Q96SW2)"
observed = 30

[[record]]
compound = "O=C1CCN(c2cnn3ccc(CN4C[C@H]5CC[C@@H](C4)N5Cc4cccc(F)c4)cc23)C(=O)N1"
targetentity = "WIZ protein (HiBit-WIZ fusion protein) (Homo sapiens, UniProt O95785+Q96SW2)"
observed = 82

